Tested on: ACHN renal
Experiment: NCI-60 one-dose screen, 48 h (100 = growth as untreated, 0 = no growth, -100 = all killed)
Settings: 10 µM unless noted
This is part of a sample that, as a whole, favours compounds with a hit. Of some 83,000 tested, about 20% had one in any assay. Calls of active or inactive are those of the source. Rule for the calls: active = growth percent below 10; inactive = the rest.
In this section we review reported growth values for a set of compounds.
outcome.measure: growth

• COc1ccc(Cn2cc3c(c2-c2cc(OC)c(OC)c(OC)c2)CCc2cnoc2-3)cc1 = 33.1% (inactive)
• COc1ccc(-c2c(N)n[nH]c2-c2cc3c(c(OC)c2OC)OCO3)cc1 = 96.9% (inactive)
• Cc1[nH]c2ccc(F)cc2c1CCNC(=O)C1CCN(C(=O)c2ccccc2)CC1 = 97% [25 µM] (inactive)
• COc1ccc(-c2ccc(C)n2-c2ccc(-c3nc4ccccc4s3)cc2)cc1 = 90.9% (inactive)
